Overview of reported Ki across a group of molecules:
Target: XIAP BIR3 domain (Homo sapiens, UniProt P98170)
Construct: fluorescent probe 4 and the XIAP BIR3 domain (Sino Biological, Beijing, China) were used for all measurements
Sequence (P98170 252-356 limits assumed): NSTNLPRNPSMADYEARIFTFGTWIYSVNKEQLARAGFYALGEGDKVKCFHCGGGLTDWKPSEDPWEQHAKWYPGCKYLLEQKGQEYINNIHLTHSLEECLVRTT
Test: Fluorescence polarization inhibition (competition) assay
Details: XIAP BIR3 50 nM, fluorescent probe 4 2 nM
Protocol: The fluorescence polarization assay was performed at r.t. in Corning 384-well black, polystyrene flat bottom plates (Corning, NY, USA) on a Synergy H4 Hybrid Reader (BioTek, Bad Friedrichshall, Germany). For fluorescence polarization measurements, (milipolarization units, mP) 484/20 nm excitation and 528/20 nm emission filters were selected. […] The obtained fluorescence polarization assay data were analyzed with Prism 5.0 Software (GraphPad Software, San Diego, ca.). […]
API: value field is a number in µM; no unit string.

Molecule	Ki, µM
CN[C@@H](C)C(=O)N[C@H](C(=O)N1CCC[C@H]1C(=O)NC(CC(C)C)P(=O)(Oc1ccccc1)Oc1ccccc1)C1CCCCC1 (stereo partly drawn)	5.25

Value of measured Ki for the entry CN[C@@H](C)C(=O)N[C@H](C(=O)N1CCC[C@H]1C(=O)NC(CCc1ccccc1)P(=O)(Oc1ccccc1)Oc1ccccc1)C1CCCCC1 (stereo partly drawn) : 7.57

Reported Ki ( CN[C@@H](C)C(=O)N[C@H](C(=O)N1CCC[C@H]1C(=O)NC(C)P(=O)(Oc1ccccc1)Oc1ccccc1)C(C)C (stereo partly drawn) ) = 15.8
